These data points were gathered from ChEMBL document CHEMBL2163297.

ASSAY PROTOCOL: Selectivity ratio of IC50 for PI3Kgamma to IC50 for PI3Kdelta
Rule for this label: Condition met means Ratio IC50 is less than 200; Condition not met means Ratio IC50 is at least 200.

CC(C)(C(N)=O)N1CCN(Cc2cc3nc(-c4nccc5[nH]ccc45)nc(N4CCOCC4)c3s2)CC1; Condition not met
Cn1ccc2c(-c3nc(N4CCOCC4)c4sc(CN5CCN(C(C)(C)C(N)=O)CC5)cc4n3)cccc21; Condition met
CS(=O)(=O)N1CCN(Cc2cc3nc(-c4cccc5[nH]ccc45)nc(N4CCOCC4)c3s2)CC1; Condition not met
Cc1nc2ccccc2n1-c1nc(N2CCOCC2)c2sc(CN3CCN(C(C)(C)C(N)=O)CC3)cc2n1; Condition met
CC(C)(C(N)=O)N1CCN(Cc2cc3nc(-c4cncc5[nH]ccc45)nc(N4CCOCC4)c3s2)CC1; Condition not met

====

MEASURED ON: Phosphatidylinositol 4,5-bisphosphate 3-kinase catalytic subunit delta isoform (Homo sapiens)
Sequence (O00329 whole entry): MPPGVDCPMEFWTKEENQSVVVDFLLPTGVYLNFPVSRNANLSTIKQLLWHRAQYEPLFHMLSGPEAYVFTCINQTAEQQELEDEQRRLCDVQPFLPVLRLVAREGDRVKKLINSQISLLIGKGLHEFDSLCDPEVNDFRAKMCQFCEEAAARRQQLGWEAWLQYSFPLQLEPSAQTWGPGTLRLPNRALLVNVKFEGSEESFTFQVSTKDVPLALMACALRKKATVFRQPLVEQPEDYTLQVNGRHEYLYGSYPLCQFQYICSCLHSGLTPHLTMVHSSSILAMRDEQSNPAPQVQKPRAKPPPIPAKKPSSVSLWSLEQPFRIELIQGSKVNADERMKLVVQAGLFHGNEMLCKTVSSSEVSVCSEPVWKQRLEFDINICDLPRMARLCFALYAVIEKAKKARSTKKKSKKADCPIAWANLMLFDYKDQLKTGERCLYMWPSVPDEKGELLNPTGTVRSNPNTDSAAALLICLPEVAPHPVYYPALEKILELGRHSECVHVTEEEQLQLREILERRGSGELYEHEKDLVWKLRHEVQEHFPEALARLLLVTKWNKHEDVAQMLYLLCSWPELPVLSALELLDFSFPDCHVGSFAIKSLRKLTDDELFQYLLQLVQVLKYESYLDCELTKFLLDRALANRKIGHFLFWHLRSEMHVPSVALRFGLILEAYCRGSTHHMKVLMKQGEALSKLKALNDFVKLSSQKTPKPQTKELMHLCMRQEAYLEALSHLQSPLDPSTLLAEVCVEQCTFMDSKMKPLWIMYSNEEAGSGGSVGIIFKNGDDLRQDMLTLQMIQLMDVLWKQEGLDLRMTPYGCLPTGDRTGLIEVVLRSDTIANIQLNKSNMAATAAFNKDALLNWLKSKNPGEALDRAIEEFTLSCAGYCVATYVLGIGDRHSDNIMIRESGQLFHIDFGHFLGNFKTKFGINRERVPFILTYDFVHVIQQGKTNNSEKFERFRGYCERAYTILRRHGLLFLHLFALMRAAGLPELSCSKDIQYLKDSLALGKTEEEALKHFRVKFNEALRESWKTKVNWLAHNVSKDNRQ
pIC50: −log10 of the molar value.
Examples of compounds with documented pIC50 follow.
REPORTED METRIC: pIC50

CN(C)C1CCN(Cc2cc3nc(-c4n[nH]c5ccccc45)nc(N4CCOCC4)c3s2)CC1; 8.01
CN(C)C1CCN(Cc2cc3nc(-c4cccc5c4CC(=O)N5)nc(N4CCOCC4)c3s2)CC1; 7.39
CN(C)C1CCN(Cc2cc3nc(-c4cccc5nccn45)nc(N4CCOCC4)c3s2)CC1; 7.57
CCc1nc2ccccc2n1-c1nc(N2CCOCC2)c2sc(CN3CCN(S(C)(=O)=O)CC3)cc2n1; 8.37
CC(C)(C(N)=O)N1CCN(Cc2cc3nc(-c4ccnc5[nH]ccc45)nc(N4CCOCC4)c3s2)CC1; 8.64
CN(C)C1CCN(Cc2cc3nc(-n4ccc5ccccc54)nc(N4CCOCC4)c3s2)CC1; 8.00
Cc1nc2ccccc2n1-c1nc(N2CCOCC2)c2sc(CN3CCN(C(C)(C)C(N)=O)CC3)cc2n1; 8.37
CC(C)(C(N)=O)N1CCN(Cc2cc3nc(-c4cc(C#N)cc5[nH]ccc45)nc(N4CCOCC4)c3s2)CC1; 8.49
Cn1ccc2c(-c3nc(N4CCOCC4)c4sc(CN5CCN(C(C)(C)C(N)=O)CC5)cc4n3)cccc21; 6.87
Cc1nc2ccccc2n1-c1nc(N2CCOCC2)c2sc(CN3CCC(N(C)C)CC3)cc2n1; 8.57
CS(=O)(=O)N1CCN(Cc2cc3nc(-c4cccc5[nH]ccc45)nc(N4CCOCC4)c3s2)CC1; 8.77
CN(C)C1CCN(Cc2cc3nc(-c4c[nH]c5ccccc45)nc(N4CCOCC4)c3s2)CC1; 8.25
CC(C)(C(N)=O)N1CCN(Cc2cc3nc(-c4cncc5[nH]ccc45)nc(N4CCOCC4)c3s2)CC1; 9.17
